Tested on: THP-1
Assay: Induction of cholesterol efflux in THP1 cells
Format: functional, cell-based
Settings: Homo sapiens
pEC50: −log10 of the molar value.
measured-endpoint: pEC50

INSERT INTO results (compound_string, value) VALUES
  ('CC(C)(C)OC(=O)n1c(-c2ccc(CCC#N)cc2)cc2ccccc21', 5.61);

(A) CC(C)(C)OC(=O)n1c(-c2ccc(CCC(N)=O)cc2)cc2ccccc21
(B) N#CCCc1ccc(-c2cc3ccccc3n2C(=O)c2ccccc2)cc1
(C) CC(C)(C)OC(=O)n1c(-c2ccc(CCC(=O)O)cc2)cc2ccccc21
Enquiry: Order the entries by their reported pEC50, beginning at the minimum. // respond by listing labels in the order requested
Return: C, A, B

----------
Molecular target: Oxysterols receptor LXR-beta (Homo sapiens, UniProt P55055)
Sequence (P55055 whole entry): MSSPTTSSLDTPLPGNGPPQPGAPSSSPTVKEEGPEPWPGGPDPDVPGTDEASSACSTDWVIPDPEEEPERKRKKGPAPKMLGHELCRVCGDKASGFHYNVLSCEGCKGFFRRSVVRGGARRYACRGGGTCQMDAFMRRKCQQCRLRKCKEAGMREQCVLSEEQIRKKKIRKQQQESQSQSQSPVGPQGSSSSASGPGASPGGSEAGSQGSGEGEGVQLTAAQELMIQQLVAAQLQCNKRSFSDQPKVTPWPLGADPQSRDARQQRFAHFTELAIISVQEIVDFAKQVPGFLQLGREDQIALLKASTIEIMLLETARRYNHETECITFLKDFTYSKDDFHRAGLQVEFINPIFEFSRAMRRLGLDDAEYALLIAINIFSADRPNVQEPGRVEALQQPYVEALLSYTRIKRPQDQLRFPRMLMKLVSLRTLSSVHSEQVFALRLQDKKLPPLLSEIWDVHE
Assay: Agonist activity at human LXRbeta receptor after 1 hr by HTRF cofactor recruitment assay
Assay type: functional
measured-endpoint: EC50 (nM)

INSERT INTO results (compound_string, test_system, measured_endpoint, value) VALUES
  ('CC(C)(C)OC(=O)n1c(-c2ccc(/C=C/C(N)=O)cc2)cc2ccccc21', 'Oxysterols receptor LXR-beta (Homo sapiens, UniProt P55055)', 'EC50', 4900),
  ('CC(C)CNC(=O)CCc1ccc(-c2cc3ccccc3n2C(=O)OC(C)(C)C)cc1', 'Oxysterols receptor LXR-beta (Homo sapiens, UniProt P55055)', 'EC50', 1510);

(a) CC(C)(C)OC(=O)n1c(-c2ccc(CCCO)cc2)cc2ccccc21
(b) CC(C)(C)OC(=O)n1c(-c2ccc(CNS(=O)(=O)c3ccccc3)cc2)cc2ccccc21
(c) CC(C)(C)OC(=O)n1c(-c2ccc(CCNS(=O)(=O)c3ccccc3)cc2)cc2ccccc21
(d) N#CCCc1ccc(-c2cc3ccccc3n2C(=O)c2ccccc2)cc1
(e) CC(C)(C)OC(=O)n1c(-c2ccc(CN)cc2)cc2ccccc21
Enquiry: hey, can you rank those molecules up there by EC50? biggest number first please // respond by listing labels in the order requested
Return: e, a, b, c, d

----------
Target: Oxysterols receptor LXR-beta (Homo sapiens, UniProt P55055)
Test: Agonist activity at human LXRbeta receptor after 1 hr by HTRF cofactor recruitment assay
Assay type: functional
measured-endpoint: EC50 (nM)

Some solved entries appear below for comparison.
INSERT INTO assay_data (compound_string, test_system, measured_endpoint, value) VALUES
  ('CC(C)(C)OC(=O)n1c(-c2ccc(CCCNC(=O)c3ccccc3)cc2)cc2ccccc21', 'Oxysterols receptor LXR-beta (Homo sapiens, UniProt P55055)', 'EC50', 360),
  ('CC(C)(C)OC(=O)n1c(-c2ccc(CCC(=O)O)cc2)cc2ccccc21', 'Oxysterols receptor LXR-beta (Homo sapiens, UniProt P55055)', 'EC50', 220),
  ('O=C(NCCc1ccc(-c2cc3ccccc3n2C(=O)c2ccccc2)cc1)c1ccccc1', 'Oxysterols receptor LXR-beta (Homo sapiens, UniProt P55055)', 'EC50', 1780),
  ('CC(C)(C)OC(=O)n1c(-c2ccc(CCC(=O)Nc3ccccc3)cc2)cc2ccccc21', 'Oxysterols receptor LXR-beta (Homo sapiens, UniProt P55055)', 'EC50', 1780);

(A) CC(C)(C)OC(=O)n1c(-c2ccc(CCC(N)=O)cc2)cc2ccccc21
(B) CC(C)(C)OC(=O)n1c(-c2ccc(CCCNS(=O)(=O)c3ccccc3)cc2)cc2ccccc21
(C) CC(C)(C)OC(=O)n1c(-c2ccc(CCc3ccc(-c4ccccn4)s3)cc2)cc2ccccc21
(D) CC(C)(C)OC(=O)n1c(-c2ccc(CCNC(=O)c3ccccc3)cc2)cc2ccccc21
Enquiry: hey, can you rank those molecules up there by EC50? biggest number first please // respond by listing labels in the order requested
Return: D, B, C, A
(D: 1750 nM, B: 350 nM, C: 230 nM, A: 57 nM)
